// reported melting point per item

Solved entries:
# compound, observable, measuredResult
records = [
    ("Cc1c(C)c2c(c(C)c1NC(=O)NC(C)(C)CO)C(c1ccc(C(C)C)cc1)CO2 (centres undefined)", "melting point", "157 to 158 °C"),
    ("CCCC[C@H](NC(=O)[C@H](CCC(=O)O)NC(=O)OCc1ccccc1)C(=O)CSCc1ccco1", "melting point", "67 to 71 °C"),
    ("O=c1c(Cl)nc2cccnc2n1-c1ccc(Cl)cc1", "melting point", "> 300 °C"),
    ("Nc1ccncc1NC(=S)NCCN1CCC(Nc2nc3ccccc3n2Cc2ccc(F)cc2)C1 (centres undefined)", "melting point", "225 °C"),
    ("Cc1cc(C(=O)CCCCCCCCC(=O)c2cc(C)c(O)c(C(C)(C)C)c2)cc(C(C)(C)C)c1O", "melting point", "165 to 168 °C"),
    ("COc1cccc(NC(=O)c2ccc(C(=O)N3CCCc4ccccc43)cc2)c1", "melting point", "154 to 155 °C"),
]

Using known records, supply melting point for CCOC(=O)C1=C(N)NC(N)=C(C(=O)OCC)C1c1ccccc1N=[N+]=[N-]
250 °C

Give the measured melting point for CN(C)C1(c2cccc(F)c2)CCC2(OCCc3c2[nH]c2ccccc32)C(CNC(=O)C=Cc2cccc(-c3ccccc3)c2)C1 (centres undefined)
134 to 140 °C

Please list melting point recorded for the compound CC(O)C=CS(C)(=O)=O (centres undefined)
70 to 72 °C
